# IC50 listing for each entry below
# study-target: KCa3.1 (Homo sapiens (Human), UniProt O15554)
# procedure-text: Thallium influx assay (FLIPR, FluxOR)
# measurement-parameters: CHOK1 cells over-expressing KCa3.1; thallium (3.3 mM)/ionomycin (1 μM) activation
The reply should be a number in nM, with the unit left off.

Observe how each entry below is paired with its result.
CCOC(=O)CN1C(=O)O[C@@H](c2ccc(F)cc2)[C@H]1c1cccc(C(F)(F)F)c1 (racemic) : 7540
CCOC(=O)CN1C(=O)OC(c2ccc(F)cc2)(c2ccc(F)cc2)[C@@H]1c1ccc(F)cc1 : 1340
NC(=O)CN1C(=O)OC(c2cccc(Cl)c2)(c2cccc(Cl)c2)[C@@H]1c1ccccc1 : 6700
NC(=O)CN1C(=O)OC(c2ccccc2F)(c2ccccc2F)[C@@H]1c1ccccc1 : 830
NC(=O)CN1C(=O)OC(c2ccccc2)(c2ccccc2)[C@@H]1c1ccccc1F : 880

Q: Kindly indicate its recorded IC50. Item: NC(=O)CN1C(=O)OC(c2ccc(F)cc2)(c2ccc(F)cc2)C1c1c(F)cccc1F (centres unmarked)
A: 7150

Q: Kindly indicate its recorded IC50. Item: CCOC(=O)CN1C(=O)O[C@@H](c2cccc(C(F)(F)F)c2)[C@H]1c1ccc(F)cc1 (racemic)
A: 600

Q: Kindly indicate its recorded IC50. Item: "Cc1ccccc1[C@@H]1N(CC(N)=O)C(=O)OC1(c1ccc(F)cc1)c1ccc(F)cc1"
A: 2200
